SUBJECT_OF_TEST: T1, APACP, ACP of the glycolipid PKS in Anabaena
T1 chain: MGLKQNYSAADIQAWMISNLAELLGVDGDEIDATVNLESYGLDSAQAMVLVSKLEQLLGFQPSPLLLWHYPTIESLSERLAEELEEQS
Give Km for every item shown.
Give bare numbers, in µM.

PROTEIN	REPORTED_METRIC	UNIT_ABBREVIATION	ENDPOINT_RESULT
MPPT, Sfp-like phosphopantetheinyl transferase (PPTase) from Microcystis aeruginosa NIES843 (protein) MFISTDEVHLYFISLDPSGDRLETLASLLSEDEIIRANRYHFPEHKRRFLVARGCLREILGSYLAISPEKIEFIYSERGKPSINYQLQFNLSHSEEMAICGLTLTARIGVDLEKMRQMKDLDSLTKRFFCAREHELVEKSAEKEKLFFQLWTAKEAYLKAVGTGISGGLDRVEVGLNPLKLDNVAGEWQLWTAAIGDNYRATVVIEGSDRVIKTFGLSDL	Km	µM	23.1

Answer for every listed entry: what is its Km? The entries follow.
1. SPPT, Sfp-like phosphopantetheinyl transferase (PPTase) from Synechocystis sp. PCC6803 (protein) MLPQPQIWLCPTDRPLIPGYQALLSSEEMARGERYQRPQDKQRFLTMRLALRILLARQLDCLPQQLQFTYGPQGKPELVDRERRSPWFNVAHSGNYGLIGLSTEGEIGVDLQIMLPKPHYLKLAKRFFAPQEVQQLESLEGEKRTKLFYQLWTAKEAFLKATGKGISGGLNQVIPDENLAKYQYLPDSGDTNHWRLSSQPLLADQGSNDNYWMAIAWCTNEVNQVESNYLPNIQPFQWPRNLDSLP
2. Sfp, phosphopantetheinyl transferase from Bacillus subtilis (protein) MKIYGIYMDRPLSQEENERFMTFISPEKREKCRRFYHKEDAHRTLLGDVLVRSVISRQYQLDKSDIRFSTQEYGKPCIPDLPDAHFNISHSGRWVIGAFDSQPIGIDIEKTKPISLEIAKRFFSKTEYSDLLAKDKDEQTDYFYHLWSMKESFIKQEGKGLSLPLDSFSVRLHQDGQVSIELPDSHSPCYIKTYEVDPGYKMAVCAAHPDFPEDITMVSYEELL

Reply:
1: 26.5; 2: 15.3

Recorded result, APPT, Sfp-like phosphopantetheinyl transferase (PPTase) from Anabaena sp. PCC7120 (protein) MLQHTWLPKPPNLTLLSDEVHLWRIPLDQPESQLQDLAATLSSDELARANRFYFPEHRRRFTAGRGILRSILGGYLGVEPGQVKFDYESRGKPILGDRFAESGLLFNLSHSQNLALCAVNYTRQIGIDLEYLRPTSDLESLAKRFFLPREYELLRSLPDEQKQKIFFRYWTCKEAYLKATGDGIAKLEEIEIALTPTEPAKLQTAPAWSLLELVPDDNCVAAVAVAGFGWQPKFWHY , Km: 10
